tested on: U251 CNS; assay: NCI tumour cell line growth inhibition, 48 h
quantity_measured: TGI

Recorded TGI, per entry:
COc1ccc(C(O)c2ccccn2)cc1 (configuration not stated) ... > 100 µM
COc1ccc(C(=O)C(C(=O)C(=O)NCCCNC(=O)C(=O)C(C(=O)c2ccc(OC)cc2)c2ccc(OC)cc2)c2ccc(OC)cc2)cc1 (configuration not stated) ... > 100 µM
CCOCCOCCOCCOCCOCCOCCOCCOCCOCCO (tested in a mixture with another compound) ... 4.47 µM
CN1C(=O)C23CCCC2CC1(c1ccccc1)S3 (configuration not stated) ... > 100 µM
COC(=O)c1c2c(cc3c1CC1(Cc4ccccc4C1)C3)CCC2 ... 48.6 µM

TGI for `Cc1ccc(S(=O)(=O)N(CCNC(=O)c2cccc(O)c2O)c2cc3c4c(c2)Oc2cccc5c2C4(C)c2c(cccc2O3)O5)cc1` is > 100 µM

###

system: OVCAR-8 ovarian; assay: NCI tumour cell line growth inhibition, 48 h
// values below are reported TGI
Numbers only; they are read as µM.

O=C1c2cccnc2-c2nccc3c2c1nc1ccccc13 ... 1.61
CCc1c(C)c2cc(-n3c(-c4ccc(OC)cc4)csc3=N)c(O)c(C)c2oc1=O ... 8.28
CC(C)(C)[Si](C)(C)OC1[C@@H](COC(=O)NC(=O)CCl)O[C@@H](n2cnc3c(N)ncnc32)[C@H]1O[Si](C)(C)C(C)(C)C (stereo not given in full) ... 4.45

# context switch: different compound, same TGI
TGI for `COc1ccc(Nc2nc(N)c(C(=O)c3ccc(Cl)cc3)s2)cc1` is 15

###

// values below are reported TGI
test system: DU-145 prostate; assay: NCI tumour cell line growth inhibition, 48 h
Numbers only; they are read as µM.

CCC(c1ccccc1)c1cc(C(C)(C)C)cc(C(C)(C)C)c1O (centres undefined) ... 33.2

# context switch: different molecule, same TGI
TGI for `COc1cnccc1Nc1nc(-c2nn(Cc3c(F)cc(OCCO)cc3F)c3ccccc23)ncc1OC` is 11.5

###

// values below are reported TGI
test system: HCT-15 colon; assay: NCI tumour cell line growth inhibition, 48 h

Recorded TGI, per entry:
COC(=O)C1(Cc2ccccc2)Cc2cc3c(cc2C1O)CCC3 (stereo unspecified) ... > 100 µM
CSc1nc2c(c(=O)n1C)C(c1ccccc1)C1=C(N2)/C(=C/c2ccccc2)CCC1 (stereo unspecified) ... > 100 µM
N#CC1=C(N)N(/N=C/c2ccco2)C(c2ccco2)C1(C#N)C#N (stereo unspecified) ... 38.8 µM
CC(=O)CC(=O)Nc1ccccc1C(F)(F)F ... > 100 µM
COc1cc2c[n+](C)c3c4cc(OC)c(OCc5ccccc5)cc4c(OCc4ccccc4)cc3c2cc1OC ... > 100 µM

TGI for `C=CCOC(=O)Cn1ccc(=O)[nH]c1=O` is > 100 µM

TGI for `C(=C/c1nnnn1-c1ccccc1)/Nc1ccccc1` is 44.2 µM

TGI for COc1ccc(C(O)c2ccccn2)cc1 (stereo unspecified) is > 100 µM

TGI for `S=C(SSC(=S)N1CCCCC1)N1CCCCC1` is 66.8 µM

TGI for CC[C@]12C=CCN3CC[C@@]4(c5cc(Br)c(OC)cc5N(C)[C@H]4[C@@](O)(C(=O)NC(Cc4c[nH]c5ccccc45)C(=O)OC)[C@@H]1O)[C@@H]32 (stereo partly specified) is > 100 µM

TGI for `CN1CCN(c2nc(N)c(Br)c(Cl)n2)CC1` is > 100 µM
